Biological target: KRAS G12C (Homo sapiens, UniProt P01116, G12C)
Sequence (P01116 1-188 isoform P01116-2 G12C): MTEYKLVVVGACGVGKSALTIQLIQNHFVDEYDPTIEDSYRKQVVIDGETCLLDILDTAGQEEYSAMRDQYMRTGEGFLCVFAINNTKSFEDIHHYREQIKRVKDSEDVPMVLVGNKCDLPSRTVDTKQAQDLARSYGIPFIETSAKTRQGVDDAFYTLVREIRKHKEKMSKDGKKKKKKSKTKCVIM
Assay: KRAS G12C NEA-HTRF experiment (SOS1-catalyzed displacement of GDP by GTP)
Listed here are compounds together with their documented log10 IC50.
measurement-name: log10 IC50 (log10 of the value in µM)

compound: C=CC(=O)N1CCN2C(=O)c3c(N4CC(O)CC4(C)C)nc(-c4c(O)cccc4F)c(C)c3OC[C@H]2C1 (single isomer, unassigned) [Z336-2]
tested-on: KRAS G12C (Homo sapiens, UniProt P01116, G12C)
measured: -1.57
//
compound: C=CC(=O)N1CCN2C(=O)c3c(N4CCO[C@](C)(COC)C4)nc(-c4c(O)cccc4F)c(Cl)c3OC[C@H]2C1 (single isomer, unassigned) [Z332-1]
tested-on: KRAS G12C (Homo sapiens, UniProt P01116, G12C)
measured: -0.89
//
compound: C=CC(=O)N1CCN2C(=O)c3c(C4NCCN5C(=O)CCC45C)nc(-c4c(O)cccc4F)c(Cl)c3OC[C@H]2C1 (stereo partly drawn) [Z337]
tested-on: KRAS G12C (Homo sapiens, UniProt P01116, G12C)
measured: -1.24
//
compound: C=CC(=O)N1CCN2C(=O)c3c(N4CCN(CCOC)C[C@@H]4C)nc(-c4c(O)cccc4F)c(Cl)c3OC[C@H]2C1 [Z257a]
tested-on: KRAS G12C (Homo sapiens, UniProt P01116, G12C)
measured: -1.12
//
compound: C=CC(=O)N1CCN2C(=O)c3c(N4C[C@H](N5CC(C(F)(F)F)C5)CC4(C)C)nc(-c4ccccc4F)c(Cl)c3OC[C@H]2C1 (single isomer, unassigned) [Z608-1]
tested-on: KRAS G12C (Homo sapiens, UniProt P01116, G12C)
measured: -0.21
//
compound: C=CC(=O)N1CCN2C(=O)c3c(N4CCC[C@@]4(C)C(=O)NC)nc(-c4c(F)cccc4OC)c(Cl)c3OC[C@H]2C1 (single isomer, unassigned) [Z466-2]
tested-on: KRAS G12C (Homo sapiens, UniProt P01116, G12C)
measured: -0.42
